- assay: Solubility of Compound 1 polymorphs in aqueous systems, buffer solutions and biorelevant media
- Type: physicochemical
- assay conditions: FaSSGF, pH 1.42, fassgf or other biorelevant, thermodynamic from solid
measured attribute: solubility at 48 h (µg/mL)

CNc1cc(Nc2cccn(-c3ccccn3)c2=O)nc2c(C(=O)N[C@@H]3CC[C@H]3OC)cnn12
34.6

====

- assay: Solubility of Compound 1 polymorphs in aqueous systems, buffer solutions and biorelevant media
- Format: physicochemical
- assay conditions: aqueous buffer, thermodynamic from solid; 50 mM Acetate buffer, pH 5.0
measured attribute: solubility (µg/mL)

CNc1cc(Nc2cccn(-c3ccccn3)c2=O)nc2c(C(=O)N[C@@H]3CC[C@H]3OC)cnn12 [Form C]
13

====

- assay: Solubility of Compound 1 polymorphs in aqueous systems, buffer solutions and biorelevant media
- Format: physicochemical
- assay conditions: aqueous buffer, thermodynamic from solid; 50 mM Phosphate buffer, pH 6.8
measured attribute: solubility (µg/mL)

CNc1cc(Nc2cccn(-c3ccccn3)c2=O)nc2c(C(=O)N[C@@H]3CC[C@H]3OC)cnn12 [Form C]
4

====

- assay: Solubility of Compound 1 polymorphs in aqueous systems, buffer solutions and biorelevant media
- Assay type: physicochemical
- assay conditions: thermodynamic from solid; FaSSIF (pH 1.64), pH at 48 Hours 1.50; average of two runs
measured attribute: solubility at 48 h (µg/mL)

CNc1cc(Nc2cccn(-c3ccccn3)c2=O)nc2c(C(=O)N[C@@H]3CC[C@H]3OC)cnn12
29.1

====

- assay: Solubility of Compound 1 polymorphs in aqueous systems, buffer solutions and biorelevant media
- Type: physicochemical
- assay conditions: FaSSIF, pH 6.5; Form C Lot: a, Form A Lot: b
measured attribute: Aqueous Solubility

CNc1cc(Nc2cccn(-c3ccccn3)c2=O)nc2c(C(=O)N[C@@H]3CC[C@H]3OC)cnn12 [Form C]
29 µg/mL

====

- assay: Solubility of Compound 1 polymorphs in aqueous systems, buffer solutions and biorelevant media
- Type: physicochemical
- assay conditions: FaSSIF, pH 6.5, fassif, thermodynamic from solid
measured attribute: solubility

CNc1cc(Nc2cccn(-c3ccccn3)c2=O)nc2c(C(=O)N[C@@H]3CC[C@H]3OC)cnn12 [Form C]
29 µg/mL

====

- assay: Solubility of Compound 1 polymorphs in aqueous systems, buffer solutions and biorelevant media
- Assay type: physicochemical
- assay conditions: 50 mM Phosphate buffer, pH 6.8; Form C Lot: a, Form A Lot: b
measured attribute: Aqueous Solubility (µg/mL)

CNc1cc(Nc2cccn(-c3ccccn3)c2=O)nc2c(C(=O)N[C@@H]3CC[C@H]3OC)cnn12 [Form C]
4

====

- assay: Solubility of Compound 1 polymorphs in aqueous systems, buffer solutions and biorelevant media
- Format: physicochemical
- assay conditions: aqueous buffer, thermodynamic from solid; Initial Buffer pH 2.98, pH at 48 Hours 3.01; average of two runs
measured attribute: solubility at 48 h (µg/mL)

CNc1cc(Nc2cccn(-c3ccccn3)c2=O)nc2c(C(=O)N[C@@H]3CC[C@H]3OC)cnn12 [Compound 1]
18.9

====

- assay: Solubility of Compound 1 polymorphs in aqueous systems, buffer solutions and biorelevant media
- Type: physicochemical
- assay conditions: 10 mM HCl, pH 2.0; Form C Lot: a, Form A Lot: b
measured attribute: Aqueous Solubility (mg/mL)

CNc1cc(Nc2cccn(-c3ccccn3)c2=O)nc2c(C(=O)N[C@@H]3CC[C@H]3OC)cnn12 [Form C]
0.058

Origin of the recorded values: patent US20250221997A1
